Just for reference, ChEMBL document CHEMBL1153830 is where these values come from.

- System: Colletotrichum graminicola
- ASSAY_TEXT: Fungicidal activity against tebuconazole-adapted wild type Colletotrichum graminicola CgM2 assessed as inhibition of radial growth rate at 23 degC in darkness
- Assay type: functional
MEASURED_ENDPOINT: ED90 (µg/mL)
Expressed in µg/mL, but write only the number.

Value of measured ED90 for the entry C[C@@H](c1ncncc1F)[C@](O)(Cn1cncn1)c1ccc(F)cc1F : 1.328

Value of measured ED90 for the entry c1ccc(-c2ccc(C(c3ccccc3)n3ccnc3)cc2)cc1 (stereo not drawn) : 4.892

Value of measured ED90 for the entry CC(=O)N1CCN(c2ccc(OCC3COC(Cn4ccnc4)(c4ccc(Cl)cc4Cl)O3)cc2)CC1 (stereo not drawn) : 12.419

Value of measured ED90 for the entry CCCN(CCOc1c(Cl)cc(Cl)cc1Cl)C(=O)n1ccnc1 : 0.72

Value of measured ED90 for the entry CC[C@H](C)C[C@H](C)CCCCCCCCC(=O)N[C@H]1C[C@@H](O)[C@@H](NCCN)NC(=O)[C@@H]2[C@@H](O)CCN2C(=O)[C@H]([C@H](O)CCN)NC(=O)[C@H]([C@H](O)[C@@H](O)c2ccc(O)cc2)NC(=O)[C@@H]2C[C@@H](O)CN2C(=O)[C@H]([C@@H](C)O)NC1=O : 0.77

Value of measured ED90 for the entry CCC(C)n1ncn(-c2ccc(N3CCN(c4ccc(OCC5COC(Cn6cncn6)(c6ccc(Cl)cc6Cl)O5)cc4)CC3)cc2)c1=O (stereo not drawn) : 8.848

Value of measured ED90 for the entry Clc1ccccc1C(c1ccccc1)(c1ccccc1)n1ccnc1 : 6.485

Value of measured ED90 for the entry CC(C)(C)C(O)(CCc1ccc(Cl)cc1)Cn1cncn1 (stereo not drawn) : 13.534

###

I'd appreciate it if you could supply log10 ED90 values for the items below.
- Test system: Colletotrichum graminicola
- ASSAY_TEXT: Fungicidal activity against tebuconazole-nonadapted wild type Colletotrichum graminicola CgM2 assessed as inhibition of radial growth rate at 23 degC in darkness
- Type: functional
// units: µg/mL (pre-log); metric: ED90; scale: log10

Value of measured log10 ED90 for the entry CC(=O)N1CCN(c2ccc(OCC3COC(Cn4ccnc4)(c4ccc(Cl)cc4Cl)O3)cc2)CC1 (stereo not given) : 0.17

Value of measured log10 ED90 for the entry CC(C)(C)C(O)(CCc1ccc(Cl)cc1)Cn1cncn1 (stereo not given) : -0.30

Value of measured log10 ED90 for the entry Clc1ccc(COC(Cn2ccnc2)c2ccc(Cl)cc2Cl)c(Cl)c1 (stereo not given) : 0.12

Value of measured log10 ED90 for the entry C[C@@H]1[C@H](O)[C@@H](C)/C=C/C=C/C=C/C=C/C=C/C=C/C=C/[C@H](O[C@@H]2O[C@H](C)[C@@H](O)[C@H](N)[C@@H]2O)C[C@@H]2O[C@](O)(C[C@@H](O)C[C@@H](O)[C@H](O)CC[C@@H](O)C[C@@H](O)CC(=O)O[C@H]1C)C[C@H](O)[C@H]2C(=O)O : 0.33

Value of measured log10 ED90 for the entry CC[C@H](C)C[C@H](C)CCCCCCCCC(=O)N[C@H]1C[C@@H](O)[C@@H](NCCN)NC(=O)[C@@H]2[C@@H](O)CCN2C(=O)[C@H]([C@H](O)CCN)NC(=O)[C@H]([C@H](O)[C@@H](O)c2ccc(O)cc2)NC(=O)[C@@H]2C[C@@H](O)CN2C(=O)[C@H]([C@@H](C)O)NC1=O : 0.11

Value of measured log10 ED90 for the entry C[C@@H](c1ncncc1F)[C@](O)(Cn1cncn1)c1ccc(F)cc1F : -0.64

Value of measured log10 ED90 for the entry c1ccc(-c2ccc(C(c3ccccc3)n3ccnc3)cc2)cc1 (stereo not given) : 0.29

Value of measured log10 ED90 for the entry CCC(C)n1ncn(-c2ccc(N3CCN(c4ccc(OCC5COC(Cn6cncn6)(c6ccc(Cl)cc6Cl)O5)cc4)CC3)cc2)c1=O (stereo not given) : 0.13

Value of measured log10 ED90 for the entry Cc1cc(C2CCCCC2)n(O)c(=O)c1.NCCO : 1.81

Value of measured log10 ED90 for the entry CO/C=C(/C(=O)OC)c1ccccc1COc1cccc(C(F)(F)F)n1 : -0.83

Value of measured log10 ED90 for the entry Cc1cccc(N(C)C(=S)Oc2ccc3ccccc3c2)c1 [TOLNAFTATE] : 2.02

Value of measured log10 ED90 for the entry COC1=CC(=O)C[C@@H](C)[C@]12Oc1c(Cl)c(OC)cc(OC)c1C2=O : 0.74

Value of measured log10 ED90 for the entry Clc1ccccc1C(c1ccccc1)(c1ccccc1)n1ccnc1 : 0.39

Value of measured log10 ED90 for the entry CCC(C)(C)c1ccc(CC(C)CN2C[C@@H](C)O[C@@H](C)C2)cc1 (stereo not given in full) : -0.46

Value of measured log10 ED90 for the entry CCCN(CCOc1c(Cl)cc(Cl)cc1Cl)C(=O)n1ccnc1 : -1.06
